- targetDesc: PAR-4 (Homo sapiens, UniProt Q96RI0)
- Construct: endogenous in cells; host or cells: washed platelets
- Sequence (Q96RI0 18-385): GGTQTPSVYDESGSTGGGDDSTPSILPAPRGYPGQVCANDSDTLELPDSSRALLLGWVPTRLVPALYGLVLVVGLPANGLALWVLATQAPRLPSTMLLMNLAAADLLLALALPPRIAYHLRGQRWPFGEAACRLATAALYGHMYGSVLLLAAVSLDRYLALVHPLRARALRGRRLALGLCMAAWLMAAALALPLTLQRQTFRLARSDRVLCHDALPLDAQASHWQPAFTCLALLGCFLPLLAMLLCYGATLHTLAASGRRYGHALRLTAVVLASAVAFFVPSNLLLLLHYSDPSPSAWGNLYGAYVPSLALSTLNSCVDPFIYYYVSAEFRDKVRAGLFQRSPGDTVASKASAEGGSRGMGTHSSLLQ
- assayName: PAC-1 binding assay, washed platelets stimulated with PAR-4-AP (flow cytometry)
- Assay type: cell-based
- studyConditions: 10 μM antagonist, PAR-4-AP stimulation, 100% = DMSO control stimulated, read-out: PAR-4 AP % Max PAC-1 binding (10 μM)
quantityKind: remaining activity at 10 µM (%)
One number for each entry, in %.

inputSmiles: CC(C)Oc1nn2cc(-c3ccc(C(F)(F)F)cc3)nc2s1
quantityKind: remaining activity at 10 µM
unitsOfMeasure: %
testResult: 81.5
//
inputSmiles: COc1nn2cc(-c3ccc(Cl)cc3)nc2s1
quantityKind: remaining activity at 10 µM
unitsOfMeasure: %
testResult: 0.02
//
inputSmiles: COc1cccc(-c2cn3nc(OC)sc3n2)c1
quantityKind: remaining activity at 10 µM
unitsOfMeasure: %
testResult: -0.071
//
inputSmiles: COc1nn2cc(-c3cccc(C(F)(F)F)c3)nc2s1
quantityKind: remaining activity at 10 µM
unitsOfMeasure: %
testResult: -0.26
//
inputSmiles: COc1nn2cc(-c3ccc(Oc4ccccc4)cc3)nc2s1
quantityKind: remaining activity at 10 µM
unitsOfMeasure: %
testResult: -0.09

Go through the list and state remaining activity at 10 µM for each entry.
1. COc1nn2cc(-c3cccc([N+](=O)[O-])c3)nc2s1
2. COc1nn2cc(-c3ccccc3OCc3csc(-c4ccccc4)n3)nc2s1
3. COc1nn2cc(-c3ccccc3[N+](=O)[O-])nc2s1

6.82
96
17.1

I have 2 compounds here; please give me remaining activity at 10 µM for each one.
1. CC(C)COc1nn2cc(-c3cccc(Cl)c3)nc2s1
2. COc1nn2cc(-c3ccc(S(C)(=O)=O)cc3)nc2s1

1. 97.3
2. 4.19

Each of the following entries comes with a recorded value; kindly state remaining activity at 10 µM for each.
1. COc1nn2cc(-c3ccc4ncn(C)c4c3)nc2s1
2. COc1nn2cc(-c3ccc(C(F)(F)F)cc3)nc2s1
3. CC(C)Oc1nn2cc(-c3c(F)cccc3F)nc2s1
4. COc1ccc(-c2cn3nc(OC)sc3n2)cc1

1. 48.1
2. -1.91
3. 102
4. -1.59

Look at each compound and report its remaining activity at 10 µM.
1. COc1nn2cc(-c3cccc(F)c3)nc2s1
2. COc1nn2cc(-c3ccc(O)cc3O)nc2s1
3. COc1nn2cc(-c3c(F)cccc3F)nc2s1
4. COc1nn2cc(-c3ccc(Br)cc3F)nc2s1

[1.47, 98.4, 1.29, 2.82]

* * *

Record form. Attribute: remaining activity at 10 µM. Fill in for each entry.
- targetDesc: PAR-4 (Homo sapiens)
- Construct: endogenous in cells; host or cells: washed platelets
- Sequence (Q96RI0 18-385): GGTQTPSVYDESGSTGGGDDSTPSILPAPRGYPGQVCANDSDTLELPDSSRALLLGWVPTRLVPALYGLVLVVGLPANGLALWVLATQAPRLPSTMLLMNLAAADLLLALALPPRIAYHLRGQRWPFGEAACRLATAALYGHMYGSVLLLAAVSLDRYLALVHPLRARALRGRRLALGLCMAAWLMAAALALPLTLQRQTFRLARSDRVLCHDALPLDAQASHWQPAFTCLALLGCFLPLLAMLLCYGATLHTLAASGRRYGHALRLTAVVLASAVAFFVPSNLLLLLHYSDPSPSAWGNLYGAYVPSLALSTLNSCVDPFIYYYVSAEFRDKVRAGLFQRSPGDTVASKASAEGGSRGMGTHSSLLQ
- assayName: PAC-1 binding assay, washed platelets stimulated with PAR-4-AP (flow cytometry)
- Format: cell-based
- studyConditions: 10 μM antagonist, PAR-4-AP stimulation, 100% = DMSO control stimulated, read-out: PAR-4 AP % Max PAC-1 binding (10 μM)
Units required after the number.

Sample answers from the record:
compound: COc1nn2cc(-c3cc(C(F)(F)F)cc(C(F)(F)F)c3)nc2s1 [Example B25]
targetDesc: PAR-4 (Homo sapiens)
remaining activity at 10 µM: -0.34%
--
compound: Fc1cccc(F)c1-c1cn2nc(OC3CCCC3)sc2n1 [Example B34]
targetDesc: PAR-4 (Homo sapiens)
remaining activity at 10 µM: 109%
--
compound: COc1nn2cc(-c3cccnc3)nc2s1 [Example B22]
targetDesc: PAR-4 (Homo sapiens)
remaining activity at 10 µM: 81.3%
--
compound: Clc1cccc(-c2cn3nc(OC4CCCC4)sc3n2)c1 [Example B38]
targetDesc: PAR-4 (Homo sapiens)
remaining activity at 10 µM: 99.5%

Could you report remaining activity at 10 µM for every entry in the following list?
1. COc1nn2cc(-c3ccc(C)cc3)nc2s1 [Example B12]
2. COc1nn2cc(-c3ccccc3F)nc2s1 [Example B30]
3. COc1nn2cc(-c3ccc(OC(F)F)cc3)nc2s1 [Example B28]
4. COc1nn2cc(-c3ccc(N4CCOCC4)cc3)nc2s1 [Example B46]
5. COc1nn2cc(-c3cccc(Cl)c3)nc2s1 [Example B23]
6. CCOc1nn2cc(-c3ccc(C(F)(F)F)cc3)nc2s1 [Example B39]
7. COc1nn2cc(-c3ccc(OC(F)(F)F)cc3)nc2s1 [Example B27]

1: 1.78%; 2: -0.14%; 3: -0.21%; 4: 10.4%; 5: -1.07%; 6: 2.21%; 7: -0.2%

* * *

- targetDesc: PAR-4 (Homo sapiens, UniProt Q96RI0)
- Construct: endogenous in cells; host or cells: washed platelets
- assayName: PAC-1 binding assay, washed platelets stimulated with PAR-4-AP (flow cytometry)
- Format: cell-based
- studyConditions: PAR-4-AP stimulation, read-out: PAR-4 AP % Max PAC-1 binding (IC50 [M])
quantityKind: log10 IC50 (log10 of the value in M)
Use the decimal logarithm of IC50 (M).

inputSmiles: CCOc1nn2cc(-c3c(F)cccc3F)nc2s1
targetDesc: PAR-4 (Homo sapiens, UniProt Q96RI0)
testResult: -5.93

I need log10 IC50 for every entry listed below, if you could help.
1. COc1nn2cc(-c3ccc([N+](=O)[O-])cc3)nc2s1
2. COc1nn2cc(-c3ccccc3F)nc2s1
3. COc1nn2cc(-c3cc(C(F)(F)F)cc(C(F)(F)F)c3)nc2s1
4. COc1nn2cc(-c3ccc(Br)cc3F)nc2s1

[-6.68, -6.28, -7.28, -6.71]

* * *

- targetDesc: PAR-4 (Homo sapiens)
- Construct: endogenous in cells; host or cells: washed platelets
- assayName: PAC-1 binding assay, washed platelets stimulated with PAR-4-AP (flow cytometry)
- Format: cell-based
- studyConditions: PAR-4-AP stimulation, read-out: PAR-4 AP % Max PAC-1 binding (IC50 [M])
quantityKind: log10 of IC50 (log10 of the value in M)
On a log10 scale: recorded IC50, unit M.

inputSmiles: CCOc1nn2cc(-c3ccc(C(F)(F)F)cc3)nc2s1
log10 of IC50: -6.19

inputSmiles: COc1nn2cc(-c3ccc(Oc4ccccc4)cc3)nc2s1
log10 of IC50: -6.84

inputSmiles: COc1nn2cc(-c3cccc(F)c3)nc2s1
log10 of IC50: -6.16

inputSmiles: COc1nn2cc(-c3ccc(OC(F)F)cc3)nc2s1
log10 of IC50: -7.08

inputSmiles: COc1ccc(-c2cn3nc(OC)sc3n2)cc1
log10 of IC50: -6.20

inputSmiles: COc1nn2cc(-c3ccc(-c4cccs4)cc3)nc2s1
log10 of IC50: -6.79

Batch request: log10 of IC50 per item, same order as input.
1. COc1nn2cc(-c3cccc(Cl)c3)nc2s1
2. COc1nn2cc(-c3cccc(OCc4csc(-c5ccccc5)n4)c3)nc2s1
3. COc1nn2cc(-c3ccc(S(C)(=O)=O)cc3)nc2s1
4. COc1nn2cc(-c3ccc(C)cc3)nc2s1
5. CCOc1nn2cc(-c3cccc(Cl)c3)nc2s1

[-7.16, -7.36, -5.96, -7.28, -5.91]

Quick request: log10 of IC50 for each listed item, please.
1. COc1nn2cc(-c3ccc(F)cc3)nc2s1
2. COc1cccc(-c2cn3nc(OC)sc3n2)c1

1. -6.39
2. -6.54
